Test: Drug repurposing screens with cells derived from glioblastoma tumor samples (AID 1345199); note: nearly all actives have a fitted effect of over 40% in size
Conditions: GBM patient neurospheres viability, ATP luminescence, 48 h; tumour line A; series mostly up to 45.9 µM
Records with an inconclusive call do not appear. Calls of active or inactive are those of the source. Calls come from the whole dose curve; as a rule, active = well fitted inhibition curve with a large enough effect; inconclusive = small, poorly fitted or top-dose-only effect; inactive = flat fitted curve, though single readings scatter.
assay.endpoint: outcome

Some entries whose results are on file:
compound | assay.endpoint | meas.value
C[C@]12CC[C@H]3[C@@H](CCC4=CC(=O)CC[C@@]43C)[C@@H]1CC[C@H]2O | outcome | inactive
c1ccc2c(c1)Sc1ccccc1N2C[C@@H]1CN2CCC1CC2 | outcome | inactive
CN[C@]1(c2ccccc2Cl)CCCCC1=O | outcome | inactive
C[C@@H](N)C(=O)c1ccccc1 | outcome | inactive

Qu. For the compound C1CN(P2(N3CC3)=NP(N3CC3)(N3CC3)=NP(N3CC3)(N3CC3)=N2)CCO1 (configuration not stated) , give its measured outcome value.
Ans. inactive

Qu. For the compound C/C=C(\CC)C(=O)NC(N)=O , give its measured outcome value.
Ans. inactive

Qu. For the compound OCCN(CCO)CCO , give its measured outcome value.
Ans. inactive

Qu. For the compound COC(=O)c1ccccc1C(=O)OC , give its measured outcome value.
Ans. inactive

Qu. For the compound C[N+](C)(C)CC(=O)[O-] , give its measured outcome value.
Ans. inactive

Qu. For the compound CCOC(=O)C1(c2ccccc2)CCCN(C)CC1 (configuration not stated) , give its measured outcome value.
Ans. inactive

Qu. For the compound Clc1ccc([C@@H]2C[C@H]3CC[C@@H]2N3)cn1 , give its measured outcome value.
Ans. inactive

Qu. For the compound C=CCC1([C@@H](C)CCC)C(=O)NC(=O)NC1=O , give its measured outcome value.
Ans. inactive

Qu. For the compound COC(=O)[C@H]1[C@@H](OC(=O)c2ccccc2)C[C@@H]2CC[C@H]1N2C , give its measured outcome value.
Ans. inactive

Qu. For the compound CNC(C)Cc1ccccc1 (configuration not stated) , give its measured outcome value.
Ans. inactive

Qu. For the compound COc1cc(C[C@H](C)N)c(OC)cc1C , give its measured outcome value.
Ans. inactive

Qu. For the compound CN[C@@]1(c2ccccc2Cl)CCCCC1=O , give its measured outcome value.
Ans. inactive

Qu. For the compound C[C@]12CCC(=O)C[C@@H]1CC[C@@H]1[C@@H]2CC[C@@]2(C)[C@H]1CC[C@]2(C)O , give its measured outcome value.
Ans. inactive

Qu. For the compound Oc1ccc2c3c1O[C@H]1[C@@H](O)C=C[C@H]4[C@H](C2)NCC[C@@]341 , give its measured outcome value.
Ans. inactive

Qu. For the compound CN(C)CCO , give its measured outcome value.
Ans. inactive

Qu. For the compound CCCCNC(C)(C)[P+](=O)O , give its measured outcome value.
Ans. inactive

Qu. For the compound C[C@@H]1[C@H]2Cc3ccc(O)cc3[C@]1(C)CCN2C , give its measured outcome value.
Ans. inactive

Qu. For the compound COc1ccc(OC)c(C[C@H](C)N)c1 , give its measured outcome value.
Ans. inactive
